Values from ChEMBL document CHEMBL4261582

Biological target: Dihydroorotate dehydrogenase (fumarate) (Leishmania major, UniProt Q4QEW7)
Sequence (Q4QEW7 whole entry): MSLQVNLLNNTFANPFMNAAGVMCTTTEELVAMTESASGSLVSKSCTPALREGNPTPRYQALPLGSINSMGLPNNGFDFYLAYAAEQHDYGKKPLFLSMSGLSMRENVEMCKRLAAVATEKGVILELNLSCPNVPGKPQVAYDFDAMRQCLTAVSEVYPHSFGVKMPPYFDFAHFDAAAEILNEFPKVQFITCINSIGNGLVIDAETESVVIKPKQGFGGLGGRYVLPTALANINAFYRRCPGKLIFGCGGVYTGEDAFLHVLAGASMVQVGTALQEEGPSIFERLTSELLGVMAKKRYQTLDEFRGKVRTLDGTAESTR
Test: Inhibition of recombinant oligo-histidine-tagged Leishmania major DHODH expressed in Escherichia coli BL21(DE3) cells using DHO as substrate measured after 60 secs
Details: read-out: IC50
Overview of reported pIC50 across a group of molecules:
// returns pIC50 (minus log10 of molar concentration), number only

Guide cases for pIC50, answers given:
Molecule	Test System	Parameter	Val
O=C(O)/C=C/c1ccccc1	Dihydroorotate dehydrogenase (fumarate) (Leishmania major, UniProt Q4QEW7)	pIC50	3.41
C=C1C(=O)O[C@@H]2/C=C(\CO)CC/C=C(\C)C[C@H](OC(=O)C(=C)[C@@H](O)CO)[C@@H]12	Dihydroorotate dehydrogenase (fumarate) (Leishmania major, UniProt Q4QEW7)	pIC50	3.44
O=C(/C=C/c1ccc(O)c(O)c1)O[C@@H]1CC(O)(C(=O)O)C[C@@H](OC(=O)/C=C/c2ccc(O)c(O)c2)C1O (some centres undefined)	Dihydroorotate dehydrogenase (fumarate) (Leishmania major, UniProt Q4QEW7)	pIC50	2.89

// next item, pIC50 requested
Prompt: Under Dihydroorotate dehydrogenase (fumarate) (Leishmania major, UniProt Q4QEW7): pIC50 value of O=c1c(O)c(-c2ccc(O[C@@H]3O[C@H](CO)[C@@H](O)[C@H](O)[C@H]3O)c(O)c2)oc2cc(O)cc(O)c12 [SPIRAEOSIDE] ?
Response: 3.79
